experimental-target: PLK2 (Homo sapiens, UniProt Q9NYY3)
Construct: purchased Invitrogen PV4204
Sequence (Q9NYY3 whole entry): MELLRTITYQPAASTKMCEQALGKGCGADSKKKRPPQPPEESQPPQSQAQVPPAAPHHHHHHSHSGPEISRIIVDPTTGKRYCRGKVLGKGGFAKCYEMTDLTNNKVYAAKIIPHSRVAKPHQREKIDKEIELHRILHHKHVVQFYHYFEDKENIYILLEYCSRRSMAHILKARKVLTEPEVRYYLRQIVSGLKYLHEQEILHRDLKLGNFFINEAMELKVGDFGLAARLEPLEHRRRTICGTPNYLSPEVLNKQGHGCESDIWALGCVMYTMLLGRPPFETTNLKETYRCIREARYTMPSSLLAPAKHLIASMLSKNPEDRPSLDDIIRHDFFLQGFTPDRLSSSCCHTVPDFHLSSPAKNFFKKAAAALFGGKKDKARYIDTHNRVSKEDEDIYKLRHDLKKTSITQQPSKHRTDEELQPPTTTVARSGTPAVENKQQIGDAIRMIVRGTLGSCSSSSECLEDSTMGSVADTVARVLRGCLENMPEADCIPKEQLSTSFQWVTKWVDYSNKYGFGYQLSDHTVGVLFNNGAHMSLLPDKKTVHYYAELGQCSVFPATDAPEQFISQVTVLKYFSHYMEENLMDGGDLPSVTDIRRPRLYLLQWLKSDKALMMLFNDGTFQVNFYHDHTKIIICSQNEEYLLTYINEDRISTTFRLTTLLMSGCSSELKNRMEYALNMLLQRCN
protocol-description: PLK2 Inhibition Assay (Z-Lyte)
Type: biochemical
measurement-conditions: 10 μM compound; read-out: PLK2 relative inhibition percentage at a dose of 10 μM
property-name: inhibition at 10 µM

Summary: O=C1Nc2ccc(Cl)cc2C1=Cc1ccc2c(-c3cccnc3)n[nH]c2c1 (mixture of isomers) , PLK2 (Homo sapiens, UniProt Q9NYY3), inhibition at 10 µM = < 50%

Summary: "Cc1ncsc1/C=C/c1n[nH]c2cc(/C=C3/C(=O)Nc4ccccc43)ccc12" , PLK2 (Homo sapiens, UniProt Q9NYY3), inhibition at 10 µM = < 50%

Summary: "O=C1Nc2ccccc2/C1=C\c1ccc2c(/C=C/c3ccccc3)n[nH]c2c1" , PLK2 (Homo sapiens, UniProt Q9NYY3), inhibition at 10 µM = < 50%

Summary: Cc1ccc2c(c1)C(=Cc1ccc3cn[nH]c3c1)C(=O)N2 (mixture of isomers) , PLK2 (Homo sapiens, UniProt Q9NYY3), inhibition at 10 µM = < 50%

Summary: O=C1Nc2ncc(Br)cc2C1=Cc1ccc2c(/C=C/c3ccncc3)n[nH]c2c1 (mixture of isomers) , PLK2 (Homo sapiens, UniProt Q9NYY3), inhibition at 10 µM = < 50%

Summary: "O=C1Nc2ncccc2/C1=C\c1ccc2c(/C=C/c3ccncc3)n[nH]c2c1" , PLK2 (Homo sapiens, UniProt Q9NYY3), inhibition at 10 µM = < 50%

Summary: COc1ccc2c(c1)C(=Cc1ccc3c(/C=C/C(=O)N4CCN(C)CC4)n[nH]c3c1)C(=O)N2 (mixture of isomers) , PLK2 (Homo sapiens, UniProt Q9NYY3), inhibition at 10 µM = < 50%

Summary: "O=C1Nc2ccc(Cl)cc2/C1=C\c1ccc2c(/C=C/c3ccncc3)n[nH]c2c1" , PLK2 (Homo sapiens, UniProt Q9NYY3), inhibition at 10 µM = < 50%

Summary: "O=C1Nc2ccccc2/C1=C\c1ccc2c(/C=C/c3cccnc3)n[nH]c2c1" , PLK2 (Homo sapiens, UniProt Q9NYY3), inhibition at 10 µM = < 50%

Summary: O=C1Nc2ncccc2C1=Cc1ccc2c(/C=C/c3cccnc3)n[nH]c2c1 (mixture of isomers) , PLK2 (Homo sapiens, UniProt Q9NYY3), inhibition at 10 µM = < 50%

----------
Here the recorded inhibition at 10 µM is given for each entry.
experimental-target: PLK2 (Homo sapiens)
Construct: purchased Invitrogen PV4204
protocol-description: PLK2 Inhibition Assay (Z-Lyte)
Format: biochemical
measurement-conditions: 10 μM compound; read-out: PLK2 relative inhibition percentage at a dose of 10 μM

Record excerpt, results attached:
[
  {
    "compound": "O=C1Nc2ccc(Cl)cc2/C1=C\\c1ccc2cn[nH]c2c1",
    "experimental-target": "PLK2 (Homo sapiens)",
    "inhibition at 10 µM": "< 50%"
  },
  {
    "compound": "COc1ccc2c(c1)/C(=C\\c1ccc3c(/C=C/c4cc[n+]([O-])cc4)n[nH]c3c1)C(=O)N2",
    "experimental-target": "PLK2 (Homo sapiens)",
    "inhibition at 10 µM": "< 50%"
  }
]

Now for a further compound.
For COc1ccc2c(c1)C(=Cc1ccc3c(/C=C/c4ccccn4)n[nH]c3c1)C(=O)N2 (mixture of isomers) the compound record lists inhibition at 10 µM as < 50%

----------
experimental-target: human PLK4 (Homo sapiens, UniProt O00444)
Construct: amino terminal GST fusion of residues 1-391 of human PLK4; made in house; host or cells: E. coli
Sequence (O00444 1-391): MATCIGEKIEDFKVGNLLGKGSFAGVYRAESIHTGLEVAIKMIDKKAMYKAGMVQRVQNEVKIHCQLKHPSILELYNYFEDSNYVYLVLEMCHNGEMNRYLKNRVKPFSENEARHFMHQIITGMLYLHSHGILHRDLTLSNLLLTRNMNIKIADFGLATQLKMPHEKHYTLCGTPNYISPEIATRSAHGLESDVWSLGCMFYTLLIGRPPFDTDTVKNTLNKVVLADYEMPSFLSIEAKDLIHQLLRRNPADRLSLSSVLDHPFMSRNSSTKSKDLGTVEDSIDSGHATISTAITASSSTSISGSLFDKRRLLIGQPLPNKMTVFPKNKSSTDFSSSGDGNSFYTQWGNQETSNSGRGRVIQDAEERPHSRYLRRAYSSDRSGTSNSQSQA
protocol-description: PLK4 Inhibition Assay (indirect ELISA)
Format: biochemical
measurement-conditions: 15 μM ATP, 4 nM GST-PLK4; read-out: PLK4 IC50 Ranges
pIC50: −log10 of the molar value.
Here the recorded pIC50 is given for each entry.

Record excerpt, results attached:
[
  {
    "compound": "O=C1Nc2ccccc2C1=Cc1ccc2c(-c3ccn[nH]3)n[nH]c2c1 (mixture of isomers)",
    "endpoint-result": "> 5.30"
  },
  {
    "compound": "CC(=O)Nc1ccc2c(c1)NC(=O)/C2=C/c1ccc2cn[nH]c2c1",
    "endpoint-result": "> 5.30"
  },
  {
    "compound": "CNC(=O)c1ccc2c(c1)/C(=C\\c1ccc3cn[nH]c3c1)C(=O)N2",
    "endpoint-result": "4.30 to 5.30"
  },
  {
    "compound": "Nc1ccc2c(c1)/C(=C\\c1ccc3[nH]nnc3c1)C(=O)N2",
    "endpoint-result": "> 5.30"
  },
  {
    "compound": "COc1cc2c(cc1OC)/C(=C\\c1ccc3cn[nH]c3c1)C(=O)N2",
    "endpoint-result": "> 5.30"
  }
]

For N#Cc1cccc2c1NC(=O)C2=Cc1ccc2cn[nH]c2c1 (mixture of isomers) the compound record lists pIC50 as 4.30 to 5.30

For "O=C1Nc2ccccc2C1=Nc1ccc2[nH]ncc2c1" the compound record lists pIC50 as 4.30 to 5.30

For O=C1Nc2ccccc2C1=Cc1ccc2c(-c3cccnc3)n[nH]c2c1 (mixture of isomers) the compound record lists pIC50 as > 5.30

For "O=C1Nc2ccccc2/C1=C\c1ccc2c(-c3cccs3)n[nH]c2c1" the compound record lists pIC50 as > 5.30

For "CS(=O)(=O)Nc1ccc2c(c1)/C(=C\c1ccc3cn[nH]c3c1)C(=O)N2" the compound record lists pIC50 as > 5.30

For "O=C1Nc2ccccc2/C1=C\c1ccc2c(/C=C/c3ccccc3Cl)n[nH]c2c1" the compound record lists pIC50 as > 5.30

For CN1CCN(c2ccc(-c3n[nH]c4cc(C=C5C(=O)Nc6ccc(Br)cc65)ccc34)cn2)CC1 (mixture of isomers) the compound record lists pIC50 as > 5.30

For O=C1Nc2ccccc2C1=Cc1ccc2c(-c3ccc[nH]3)n[nH]c2c1 (mixture of isomers) the compound record lists pIC50 as > 5.30

For "O=C1Nc2ccc(OC(F)(F)F)cc2/C1=C\c1ccc2nn[nH]c2c1" the compound record lists pIC50 as > 5.30

For COC(=O)c1ccc(/C=C/c2n[nH]c3cc(C=C4C(=O)Nc5ncccc54)ccc23)cc1 (mixture of isomers) the compound record lists pIC50 as > 5.30

For "CC(C)NC(=O)Nc1ccc2c(c1)/C(=C\c1ccc3nn[nH]c3c1)C(=O)N2" the compound record lists pIC50 as 4.30 to 5.30

For "O=C1Nc2ccccc2/C1=C\c1ccc2c(C3CC3)n[nH]c2c1" the compound record lists pIC50 as > 5.30

----------
Record type: GI50 measurement. Applies to: human mammary epithelial primary cells (HMEC)

Record excerpt, results attached:
[
  {
    "molecule": "CN1CCN(c2ccc(/C=C/c3n[nH]c4cc(C=C5C(=O)Nc6ccccc65)ccc34)cn2)CC1 (mixture of isomers)",
    "GI50": "< 5 µM"
  },
  {
    "molecule": "Cc1ncsc1/C=C/c1n[nH]c2cc(/C=C3/C(=O)Nc4ccccc43)ccc12",
    "GI50": "> 50 µM"
  },
  {
    "molecule": "O=C1Nc2ccccc2C1=Cc1ccc2c(/C=C/c3ccccn3)n[nH]c2c1 (mixture of isomers)",
    "GI50": "> 50 µM"
  }
]

Summary: "O=C1Nc2ccc(Cl)cc2/C1=C\c1ccc2c(/C=C/c3ccncc3)n[nH]c2c1" , human mammary epithelial primary cells (HMEC), GI50 = > 50 µM

Summary: COc1ccc2c(c1)C(=Cc1ccc3c(-c4ccc(N5CCN(C)CC5)nc4)n[nH]c3c1)C(=O)N2 (mixture of isomers) , human mammary epithelial primary cells (HMEC), GI50 = 20 to 50 µM

Summary: CN(C)Cc1ccc(/C=C/c2n[nH]c3cc(C=C4C(=O)Nc5ccccc54)ccc23)cc1 (mixture of isomers) [Example A106, 2,2,2-trifluoroacetate] , human mammary epithelial primary cells (HMEC), GI50 = 5 to 20 µM

Summary: O=C1Nc2ncc(Br)cc2C1=Cc1ccc2c(/C=C/c3ccncc3)n[nH]c2c1 (mixture of isomers) , human mammary epithelial primary cells (HMEC), GI50 = > 50 µM

Summary: "O=C1Nc2ccccc2/C1=C\c1ccc2c(-c3cccs3)n[nH]c2c1" , human mammary epithelial primary cells (HMEC), GI50 = 5 to 20 µM

----------
Here the recorded inhibition at 10 µM is given for each entry.
experimental-target: PKCb1 (Homo sapiens, UniProt P05771)
Sequence (P05771 whole entry): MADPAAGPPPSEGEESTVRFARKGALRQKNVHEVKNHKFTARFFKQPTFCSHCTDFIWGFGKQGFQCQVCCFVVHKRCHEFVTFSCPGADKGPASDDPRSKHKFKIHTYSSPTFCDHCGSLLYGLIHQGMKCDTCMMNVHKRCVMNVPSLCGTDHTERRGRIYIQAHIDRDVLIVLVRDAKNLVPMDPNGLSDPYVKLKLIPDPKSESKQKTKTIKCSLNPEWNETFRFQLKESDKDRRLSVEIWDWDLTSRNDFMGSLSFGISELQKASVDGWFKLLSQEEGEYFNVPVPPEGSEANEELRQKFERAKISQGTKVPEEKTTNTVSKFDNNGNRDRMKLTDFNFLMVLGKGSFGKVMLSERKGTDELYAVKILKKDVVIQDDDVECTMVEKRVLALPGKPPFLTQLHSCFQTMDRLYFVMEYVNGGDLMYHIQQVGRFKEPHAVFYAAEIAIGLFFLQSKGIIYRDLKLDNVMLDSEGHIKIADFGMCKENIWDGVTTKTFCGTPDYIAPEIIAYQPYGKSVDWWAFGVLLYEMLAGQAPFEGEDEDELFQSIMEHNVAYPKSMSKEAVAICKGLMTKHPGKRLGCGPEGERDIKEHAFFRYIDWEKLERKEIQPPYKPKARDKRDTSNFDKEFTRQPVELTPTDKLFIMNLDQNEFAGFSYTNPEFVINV
protocol-description: Kinase Selectivity Assay (CEREP, HTRF)
Assay type: biochemical
measurement-conditions: read-out: % Inhibition at 10 μM Concentration, PKCbeta 1
State the answer as a number, implicitly in %.

Record excerpt, results attached:
[
  {
    "compound": "O=C1Nc2ccccc2/C1=C\\c1ccc2cn[nH]c2c1",
    "output-unit": "%",
    "endpoint-result": -5
  },
  {
    "compound": "COc1ccc2c(c1)C(=Cc1ccc3c(-c4ccc(N5CCN(C)CC5)nc4)n[nH]c3c1)C(=O)N2 (mixture of isomers)",
    "output-unit": "%",
    "endpoint-result": 2
  },
  {
    "compound": "O=C1Nc2ccccc2/C1=C\\c1ccc2c(/C=C/c3ccccc3Cl)n[nH]c2c1",
    "output-unit": "%",
    "endpoint-result": 0
  }
]

Now for a further compound.
Summary: O=C1Nc2ccccc2C1=Cc1ccc2c(/C=C/c3ccccn3)n[nH]c2c1 (mixture of isomers) , PKCb1 (Homo sapiens, UniProt P05771), inhibition at 10 µM = -2
